Origin of values: ChEMBL document CHEMBL1144944

Experiment: Oral bioavailability in dog (dose 10 mg/kg)
Assay type: ADME, organism-based, Canis lupus familiaris
Settings: in vivo
measuredMetric: bioavailability (%)

P = O=C1CN(S(=O)(=O)c2cc3ccc(Cl)cc3s2)CCN1Cc1cc2c[nH]ccc-2n1
Q = O=C1CN(S(=O)(=O)c2cc3ccc(Cl)cc3s2)CCN1Cc1cc2cnccc2n1CCO
Data request: I'd appreciate it if you could identify which of P and Q has the greater bioavailability. Indicate which entry you chose by stating its label.
Data returned: P

* * *

Data export: pKi values recorded with Coagulation factor X (Homo sapiens, UniProt P00742).
Sequence (P00742 41-179 limits assumed): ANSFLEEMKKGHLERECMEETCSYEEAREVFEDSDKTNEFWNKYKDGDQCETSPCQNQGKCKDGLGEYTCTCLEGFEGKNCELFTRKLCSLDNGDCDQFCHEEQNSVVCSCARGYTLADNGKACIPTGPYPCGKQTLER
Sequence (P00742 235-488 limits assumed): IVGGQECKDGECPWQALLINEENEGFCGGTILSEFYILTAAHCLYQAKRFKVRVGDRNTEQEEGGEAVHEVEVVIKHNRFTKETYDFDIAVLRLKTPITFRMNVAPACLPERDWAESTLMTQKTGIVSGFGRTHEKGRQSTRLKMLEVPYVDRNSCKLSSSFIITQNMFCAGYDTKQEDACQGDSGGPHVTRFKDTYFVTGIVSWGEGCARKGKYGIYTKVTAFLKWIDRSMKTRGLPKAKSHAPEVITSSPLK
pKi: −log10 of the molar value.

Reference set (2 entries):
smilesentry=O=C1CN(S(=O)(=O)c2cc3ccc(Cl)cc3s2)CCN1Cc1cc2c(O)[nH]ccc-2n1 value="< 5.92"
smilesentry=O=C1CN(S(=O)(=O)c2cc3ccc(Cl)cc3s2)CCN1Cc1cc2[nH]cccc-2n1 value="< 5.92"

The molecule O=C1CN(S(=O)(=O)c2sc3ccccc3c2Cl)CCN1Cc1cc2c[nH]ccc-2n1 , tested on Coagulation factor X (Homo sapiens, UniProt P00742), showed pKi of < 5.92
